The origin of these recorded values is ChEMBL document CHEMBL1153316.

assay: Inhibition of kallikrein assessed as specific activity at 0.5 mM; parameters: scale not given: the % may be the effect or the level left
Peptide text beside a SMILES is read from it.
readout: Activity

Previously resolved entries follow.
CSCC[C@H](NC(=O)[C@H](CCSC)NC(=O)[C@@H]1CCCN1C(=O)[C@H](CC(C)C)NC(=O)[C@@H](NC(=O)[C@H](CC(N)=O)NC(=O)[C@H](Cc1ccccc1)NC(=O)[C@@H](N)C(C)C)[C@@H](C)O)C(=O)NCC(=O)N[C@@H](CCCCN)C(=O)N[C@@H](C)C(=O)N[C@@H](CO)C(=O)N1CCC[C@H]1C(=O)N[C@H](C(=O)Nc1ccc([N+](=O)[O-])cc1)C(C)C (HELM PEPTIDE1{V.F.N.T.L.P.M.M.G.K.A.S.P.V.[O=[N+]([O-])c1ccc(N[*:1])cc1]}$$$$V2.0) :: < 1%
CC(C)[C@H](NC(=O)[C@H](CCC(=O)O)NC(=O)[C@H](Cc1ccc(O)cc1)NC(=O)CNC(=O)[C@H](CO)NC(=O)[C@H](CC(=O)O)NC(=O)[C@H](Cc1cnc[nH]1)NC(=O)[C@H](CCCNC(=N)N)NC(=O)[C@H](Cc1ccccc1)NC(=O)[C@H](CCC(=O)O)NC(=O)[C@H](C)NC(=O)[C@H](CC(=O)O)NC(=O)[C@@H](N)CO)C(=O)Nc1ccc([N+](=O)[O-])cc1 :: < 1%

// below: Activity requested for another compound
What does the record list as Activity for `N=C(N)NCCC[C@H](NC(=O)c1ccccc1)C(=O)Nc1ccc([N+](=O)[O-])cc1` ?
24%
